- EXPERIMENTAL_SETUP: bacteroides fragilis, 12 h, 2 µM
- Description: The drug is tested on Bacteroides fragilis strain: 3397 (T10) for biotransformation. The drug concentrations were measured before and after a 12-h incubation by liquid-chromatography-coupled mass spectrometry (LC–MS)
RECORDED_METRIC: Bacterial Biotransformation

Use the examples below as a reference point.
[[record]]
compound = "CC[C@H](C)C(=O)O[C@H]1CCC=C2C=C[C@H](C)[C@H](CC[C@@H]3C[C@@H](O)CC(=O)O3)[C@H]21"
result = "Compound metabolized"

[[record]]
compound = "CCN(C(C)=O)c1cccc(-c2ccnc3c(C#N)cnn23)c1"
result = "Compound NOT metabolized"

[[record]]
compound = "CC(C)c1nc(N(C)S(C)(=O)=O)nc(-c2ccc(F)cc2)c1/C=C/[C@@H](O)C[C@@H](O)CC(=O)[O-].CC(C)c1nc(N(C)S(C)(=O)=O)nc(-c2ccc(F)cc2)c1/C=C/[C@@H](O)C[C@@H](O)CC(=O)[O-].[Ca+2]"
result = "Compound NOT metabolized"

[[record]]
compound = "C#C[C@]1(O)CC[C@H]2[C@@H]3CCC4=CC(=O)CC[C@@H]4[C@H]3CC[C@@]21CC"
result = "Compound metabolized"

[[record]]
compound = "COc1cc2nc(N3CCN(C(=O)c4ccco4)CC3)nc(N)c2cc1OC"
result = "Compound NOT metabolized"

[[record]]
compound = "Nc1ccc(/N=N/c2ccccc2)c(N)n1"
result = "Compound metabolized"

[[record]]
compound = "CCC(C)n1ncn(-c2ccc(N3CCN(c4ccc(OCC5COC(Cn6cncn6)(c6ccc(Cl)cc6Cl)O5)cc4)CC3)cc2)c1=O (stereo not drawn)"
result = "Compound NOT metabolized"


Next, consider the following compound.
Given the compound CN1CCN(C2=Nc3ccccc3Oc3ccc(Cl)cc32)CC1.O=C(O)CCC(=O)O [LOXAPINE SUCCINATE] , what is its reported Bacterial Biotransformation?
Compound NOT metabolized

The origin of these recorded values is ChEMBL document CHEMBL5303573.
